- Tested on: Escherichia coli
- protocolDetails: minimum inhibitory concentration (MIC)
- testParameters: isolate (source animal id): 137
observable: minimum inhibitory concentration (µg/mL)
Field: numeric (µg/mL). Do not append units.

- mol: "CC1(C)S[C@@H]2[C@H](NC(=O)[C@H](N)c3ccccc3)C(=O)N2[C@H]1C(=O)O"
  observable: "minimum inhibitory concentration"
  observedValue: 4

Now turn to the next compound.
minimum inhibitory concentration for CC[C@H]1OC(=O)C[C@@H](O)[C@H](C)[C@@H](O[C@@H]2O[C@H](C)[C@@H](O)[C@H](N(C)C)[C@H]2O)[C@@H](CCN2CCCCC2)C[C@@H](C)C(=O)/C=C/C(C)=C/[C@@H]1CN1CCCCC1 ?
4

###

- Test system: Histophilus somni
- protocolDetails: minimum inhibitory concentration (MIC)
- testParameters: isolate (source animal id): 259
The reader will find reported minimum inhibitory concentration values listed item by item below.

Answered cases to consult:
- compound: "CN[C@@H]1[C@H](O)[C@H](NC)[C@H]2O[C@@]3(O)C(=O)C[C@@H](C)O[C@H]3O[C@@H]2[C@H]1O [Spectinomycin]"
  minimum inhibitory concentration: "> 64 µg/mL"
- compound: "CO/N=C(\\C(=O)N[C@@H]1C(=O)N2C(C(=O)O)=C(CSC(=O)c3ccco3)CS[C@H]12)c1csc(N)n1 [Ceftiofur]"
  minimum inhibitory concentration: "≤ 0.25 µg/mL"
- compound: "NC[C@@H]1O[C@H](O[C@H]2[C@@H](O)[C@H](O[C@@H]3[C@@H](O)[C@H](N)C[C@H](N)[C@H]3O[C@H]3O[C@H](CN)[C@@H](O)[C@H](O)[C@H]3N)O[C@@H]2CO)[C@H](N)[C@@H](O)[C@@H]1O [Neomycin]"
  minimum inhibitory concentration: "> 32 µg/mL"

minimum inhibitory concentration for CS(=O)(=O)c1ccc([C@@H](O)[C@@H](CF)NC(=O)C(Cl)Cl)cc1 [Florfenicol] ?
≤ 0.25 µg/mL

minimum inhibitory concentration for CN1C[C@@H]2C[C@H]1CN2c1cc2c(cc1F)c(=O)c(C(=O)O)cn2C1CC1 [Danofloxacin] ?
≤ 0.12 µg/mL

###

The reader will find reported minimum inhibitory concentration values listed item by item below.
- Test system: Enterococcus spp.
- protocolDetails: minimum inhibitory concentration (MIC)
- testParameters: isolate (source animal id): 158

- compound: "CN(C)[C@@H]1C(O)=C(C(N)=O)C(=O)[C@@]2(O)C(O)=C3C(=O)c4c(O)cccc4[C@@](C)(O)[C@H]3C[C@@H]12 [Tetracycline]"
  observable: "minimum inhibitory concentration"
  observedValue: "> 8 µg/mL"
- compound: "CS(=O)(=O)c1ccc([C@@H](O)[C@@H](CF)NC(=O)C(Cl)Cl)cc1 [Florfenicol]"
  observable: "minimum inhibitory concentration"
  observedValue: "2 µg/mL"

Request: minimum inhibitory concentration, test system Enterococcus spp., entry COc1cc(NS(=O)(=O)c2ccc(N)cc2)nc(OC)n1 [sulfadimethoxine]
> 256 µg/mL

Request: minimum inhibitory concentration, test system Enterococcus spp., entry CC[C@H]1OC(=O)C[C@@H](O)[C@H](C)[C@@H](O[C@@H]2O[C@H](C)[C@@H](O[C@H]3C[C@@](C)(O)[C@@H](O)[C@H](C)O3)[C@H](N(C)C)[C@H]2O)[C@@H](CC=O)C[C@@H](C)C(=O)/C=C/C(C)=C/[C@@H]1CO[C@@H]1O[C@H](C)[C@@H](O)[C@@H](OC)[C@H]1OC [Tylosin]
> 32 µg/mL
